Test system: SNB-19 CNS
Assay: NCI tumour cell line growth inhibition, 48 h
Listed next: entries and their corresponding TGI.

Known results for compounds:
| COMPOUND | TARGET_OF_ASSAY | TGI |
| --- | --- | --- |
| NC1(c2cc3ccccc3s2)CCCCCC1 | SNB-19 CNS | 34.8 µM |
| COc1c(C(N)=O)cc(-c2ccc(Cl)cc2)cc1-c1ccc(S(N)(=O)=O)cc1 | SNB-19 CNS | > 25 µM |
| CC1(C)OCC2OC(n3cnc4c(N)nc(Cl)nc43)C(OS(C)(=O)=O)C2O1 (stereo not given) | SNB-19 CNS | > 100 µM |
| CCCCCCC(=O)NC1=C(N2CC2)C(=O)C(NC(=O)CCCCCC)=C(N2CC2)C1=O | SNB-19 CNS | > 100 µM |
| CCOP(=O)(OCC)C(Nc1ccc(Cl)cc1)c1ccc(F)cc1 (stereo not given) | SNB-19 CNS | > 100 µM |
| CN1C(=O)N(C)C2C1NC(=S)N2/N=C/C=C/c1ccccc1[N+](=O)[O-] (stereo not given) | SNB-19 CNS | > 100 µM |
| N#CC1=C(O)NC(O)=C(C#N)C1c1c(Cl)cccc1Cl | SNB-19 CNS | > 100 µM |
| CCC(O)CCCCCCCCCCCCCCC(=O)O (stereo not given) | SNB-19 CNS | > 100 µM |
| COC(=O)[C@]1(C)CCC[C@@]2(C)C3=C(CC[C@H]12)C[C@@H](CC(OC(C)=O)OC(C)=O)[C@@H](C)C3 | SNB-19 CNS | 32.1 µM |
| CCN(CC)CCOc1nc2ccccc2c2c1-c1ccc(OC)cc1C2=O | SNB-19 CNS | 6.6 µM |

Given Nc1nc(-c2ccc3c(c2)/C(=C\c2cc(Br)c(O)c(Br)c2)C(=O)N3)cs1 , state its recorded TGI.
> 25 µM

Which TGI value is on record for O=C1CCCC1CC(CN1CCOCC1)Sc1nnnn1-c1ccccc1 (stereo not given) ?
> 100 µM

Param item = COC1(OC)CC(CO)(COc2cc(Cl)nc(N)n2)C1 ; retrieve measured TGI.
> 100 µM

###

System: NCI-H23 lung
Assay: NCI tumour cell line growth inhibition, 48 h
READOUT: TGI

Known results for compounds:
| COMPOUND | MEASURED |
| --- | --- |
| O=c1oc2ccccc2c(O)c1C(c1ccc(OCc2ccccc2)cc1)c1c(O)c2ccccc2oc1=O | > 100 µM |
| O=C1/C=C/[C@@H](O)[C@@H]2C[C@@H](O)C[C@H]2/C=C/CCC[C@H](CCO)O1 | 2.3 µM |
| O=C(CSc1nc2ccc(I)cc2c(=O)n1Cc1ccccc1)Nc1ccccc1 | > 100 µM |

Attention now shifts to the item below.
Find the recorded TGI belonging to COc1cc2[nH]c3c(c2cc1OC)CCN[C@@]31CC[C@@]2(CC3c4c(cc(OC)c(O)c42)CCN3C)C[C@@H]1OC (stereo not given in full) and report it.
> 100 µM

###

Test system: ACHN renal
Experiment: NCI tumour cell line growth inhibition, 48 h; in the data active = GI50 below about 0.43 µM; inactive = the rest
In this exercise, the only acceptable responses are 1 (active), -1 (inactive)

// outcome(item) with item = CCC[CH2][Sn]1([CH2]CCC)[O]C(=O)c2cccc([N+](=O)[O-])c2C(=O)[O]1
1

Please let me know the test result on file for CC1=CC(C)=N/C(=N/S(=O)(=O)c2cc(C)c(Cl)cc2SCc2ccccc2)NN1 .
-1

So what was the verdict on COc1cc2c(cc1OCC(=O)Nc1ccc(Cl)cc1C(=O)c1ccccc1Cl)N=CC1CCCN1C2=O (configuration not stated) in this test?
-1
